Values from ChEMBL document CHEMBL5500373

Experiment: Drug concentration in male Wistar rat brain homogenate at 20 mg/kg, po measured after 4 days
Assay type: ADME, organism-based
Conditions: time 4 day, read-out: Ct
Quick reference for concentration at 96 h among some compounds
Give just the numeric value; ng/mL need not be written.

COc1cc2ncnc(N3CCN(Cc4ccccc4)CC3)c2cc1OC 977

# evaluate next
State the recorded concentration at 96 h for this entry: c1ccc(CN2CCN(c3nc(-c4ccccc4)nc4ccccc34)CC2)cc1
54

====

Quick reference for IC50 among some compounds
Target: Acetylcholinesterase (Homo sapiens)
Sequence (P22303 whole entry): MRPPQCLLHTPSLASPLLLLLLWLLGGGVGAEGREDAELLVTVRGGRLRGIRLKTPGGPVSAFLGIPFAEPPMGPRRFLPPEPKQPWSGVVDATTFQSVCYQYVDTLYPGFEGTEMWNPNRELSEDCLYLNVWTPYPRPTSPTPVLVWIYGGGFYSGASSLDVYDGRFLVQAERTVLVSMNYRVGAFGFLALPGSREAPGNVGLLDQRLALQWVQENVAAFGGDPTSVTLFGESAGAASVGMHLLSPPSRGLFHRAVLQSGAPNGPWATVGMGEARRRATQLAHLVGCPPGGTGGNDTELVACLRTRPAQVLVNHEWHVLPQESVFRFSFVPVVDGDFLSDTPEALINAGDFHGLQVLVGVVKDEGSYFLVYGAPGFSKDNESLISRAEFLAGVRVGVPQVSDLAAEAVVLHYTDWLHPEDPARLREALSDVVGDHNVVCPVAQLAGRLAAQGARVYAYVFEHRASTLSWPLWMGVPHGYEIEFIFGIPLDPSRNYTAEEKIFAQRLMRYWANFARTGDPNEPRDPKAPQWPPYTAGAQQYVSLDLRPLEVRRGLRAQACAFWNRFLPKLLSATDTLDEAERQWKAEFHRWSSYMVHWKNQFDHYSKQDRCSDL
Test: Inhibition of human erythrocyte AChE using acetylthiocholine iodide as substrate preincubated for 30 mins followed by substrate addition and measured after 30 mins by DTNB based Ellman's method
Give just the numeric value; nM need not be written.

// known answers, use as guide
COc1cc2ncnc(N3CCN(Cc4ccc(F)cc4)CC3)c2cc1OC 932
COc1cc2ncnc(N3CCN(c4ccc([N+](=O)[O-])cc4)CC3)c2cc1OC 481
COc1cc2ncnc(N3CCN(C)CC3)c2cc1OC 1270

State the recorded IC50 for this entry: COc1cc2ncnc(N3CCN(Cc4ccc(Cl)cc4)CC3)c2cc1OC
921

State the recorded IC50 for this entry: COc1cc2ncnc(N3CCN(c4ccc(Br)cc4)CC3)c2cc1OC
973

State the recorded IC50 for this entry: COc1cc2ncnc(N3CCN(c4ccccn4)CC3)c2cc1OC
1150

State the recorded IC50 for this entry: COc1cc2ncnc(N3CCN(C(c4ccccc4)c4ccccc4)CC3)c2cc1OC
436
